Tested on: Streptococcus pneumoniae Stpn_Erm S 4297
Assay: MIC, broth microdilution (NCCLS)
Format: cell-based
Conditions: Table 7, Strain ID J (Table 6): S. pneumoniae Stpn_Erm S 4297
quantity kind: MIC

molecule	MIC
C=C[C@]12OC(=O)N(CCCCn3cnc(-c4cccnc4)c3)[C@@H]1[C@@H](C)C(=O)[C@H](C)C[C@](C)(OC)[C@H](OC1O[C@H](C)C[C@H](N(C)C)[C@H]1O)[C@@H](C)C(=O)[C@@H](C)C(=O)O[C@@H]2CC (stereo partly drawn) [Example 48]	=0.05
CC[C@H]1OC(=O)[C@H](C)C(=O)[C@H](C)[C@@H](OC2O[C@H](C)C[C@H](N(C)C)[C@H]2O)[C@@](C)(OC)C[C@@H](C)C(=O)[C@H](C)[C@H]2N(CCCCn3cc(-c4cccnc4)nc3C)C(=O)O[C@]12CC (stereo partly drawn) [Example 20]	=0.05
CC[C@H]1OC(=O)[C@@](C)(F)C(=O)[C@H](C)[C@@H](OC2O[C@H](C)C[C@H](N(C)C)[C@H]2O)[C@@](C)(OC)C[C@@H](C)C(=O)[C@H](C)[C@H]2N(CCCCc3ccc4ccccc4n3)C(=O)O[C@]12CC (stereo partly drawn) [65 (1)]	=0.05
CCC1OC(=O)C(C)C(=O)C(C)C(OC2OC(C)CC(N(C)C)C2O)C(C)(OC)CC(C)C(=O)C(C)C2C1OC(=O)N2CCCCn1ccc2ncccc21 (stereo not drawn) [Compound 20m]	=0.05
C=C[C@]12OC(=O)N(CCCCn3cnc(-c4cccnc4)c3)[C@@H]1[C@@H](C)C(=O)[C@H](C)C[C@](C)(OC)[C@H](OC1O[C@H](C)C[C@H](N(C)C)[C@H]1O)[C@@H](C)C(=O)[C@](C)(F)C(=O)O[C@@H]2CC (stereo partly drawn) [Example 49]	=0.05
CC[C@H]1OC(=O)[C@@](C)(F)C(=O)[C@H](C)[C@@H](OC2O[C@H](C)C[C@H](N(C)C)[C@H]2O)[C@@](C)(OC)C[C@@H](C)C(=O)[C@H](C)[C@H]2N(CCCC(C)(C)n3cnc4ncccc43)C(=O)O[C@]12CC (stereo partly drawn) [Example 39]	=0.05
CC[C@H]1OC(=O)[C@@](C)(F)C(=O)[C@H](C)[C@@H](OC2O[C@H](C)C[C@H](N(C)C)[C@H]2O)[C@@](C)(OC)C[C@@H](C)C(=O)[C@H](C)[C@H]2N(CCCC(C)(C)n3cnc4cccnc43)C(=O)O[C@]12CC (stereo partly drawn) [Example 40]	=0.05
CC[C@H]1OC(=O)[C@@](C)(F)C(=O)[C@H](C)[C@@H](OC2O[C@H](C)C[C@H](N(C)C)[C@H]2O)[C@@](C)(OC)C[C@@H](C)C(=O)[C@H](C)[C@H]2N(CCCC(C)(C)n3cnc(-c4cccnc4)c3)C(=O)O[C@]12CC (stereo partly drawn) [Example 32]	=0.05

Problem: Give MIC for C=C[C@]12OC(=O)N(CCCC(C)(C)n3cnc(-c4cccnc4)c3)[C@@H]1[C@@H](C)C(=O)[C@H](C)C[C@](C)(OC)[C@H](OC1O[C@H](C)C[C@H](N(C)C)[C@H]1O)[C@@H](C)C(=O)[C@@H](C)C(=O)O[C@@H]2CC (stereo partly drawn) [Example 50]
Result: =0.05
